For each record, write down the corresponding IC50.
# System: Jurkat
# TEST NAME: Antiproliferative activity against human Jurkat cells assessed as growth inhibition after 72 hrs by MTT assay
# Type: functional, cell-based
Don't forget the unit after the value.

# SMILES DATA, VALUE MEASURED
records = [
    ("COc1ccc(-c2sc(N)nc2-c2cc(OC)c(OC)c(OC)c2)cc1", "2.1 nM"),
    ("COc1cc(-c2nc(N)sc2-c2ccc(C)cc2)cc(OC)c1OC", "3.9 nM"),
    ("COc1ccc(-c2sc(N)nc2-c2cc(OC)c(OC)c(OC)c2)cc1C", "21.5 nM"),
    ("CCc1ccc(-c2sc(N)nc2-c2cc(OC)c(OC)c(OC)c2)cc1", "4.1 nM"),
    ("COc1ccc(-c2sc(N)nc2-c2cc(OC)c(OC)c(OC)c2)cc1OC", "319 nM"),
]

Q) Give the measured IC50 of `COc1cc(-c2nc(N)sc2-c2cccc3ccccc23)cc(OC)c1OC` .
A) 4690 nM

###

# System: CCRF-CEM
# TEST NAME: Fold resistance, ratio of IC50 for human vinblastine-resistant CEM/VBL100 cells overexpressing P-gp to IC50 for human CEM cells
# Format: functional
So I've got a bunch of compounds here, and I need their Ratio IC50 values.
Numbers only.

Here is how some compounds turned out for Ratio IC50.
# SMILES DATA, Ratio IC50
measured = [
    ("CCOc1ccc(-c2sc(N)nc2-c2cc(OC)c(OC)c(OC)c2)cc1", 0.9),
    ("CCOc1ccc(-c2sc(N)nc2-c2cc(OC)c(OC)c(OC)c2)cc1Cl", 0.5),
    ("CC[C@]1(O)C[C@@H]2CN(CCc3c([nH]c4ccccc34)[C@@](C(=O)OC)(c3cc4c(cc3OC)N(C)[C@H]3[C@@](O)(C(=O)OC)[C@H](OC(C)=O)[C@]5(CC)C=CCN6CC[C@]43[C@@H]65)C2)C1", 56.1),
]

// below: Ratio IC50 requested for another compound
Q) Record request: Ratio IC50 value, item `COc1ccc(-c2sc(N)nc2-c2cc(OC)c(OC)c(OC)c2)cc1`
A) 0.1

###

# TEST NAME: Antiproliferative activity against human taxol-resistant A549-T12 cells assessed as growth inhibition after 72 hrs by MTT assay
# Assay type: functional, cell-based
# CONDITION INFO: A549, 72 h
OBSERVATION TYPE: IC50 (nM)
One number for each entry, in nM.

# SMILES DATA, IC50 [nM]
measured = [
    ("CCOc1ccc(-c2sc(N)nc2-c2cc(OC)c(OC)c(OC)c2)cc1", 0.2),
    ("COc1ccc(-c2sc(N)nc2-c2cc(OC)c(OC)c(OC)c2)cc1", 11.4),
    ("CCOc1ccc(-c2sc(N)nc2-c2cc(OC)c(OC)c(OC)c2)cc1Cl", 8.5),
]

Let's switch to this molecule now.
Q) Using the record for `CC(=O)O[C@H]1C(=O)[C@@]2(C)[C@H]([C@H](OC(=O)c3ccccc3)[C@]3(O)C[C@H](OC(=O)[C@H](O)[C@@H](NC(=O)c4ccccc4)c4ccccc4)C(C)=C1C3(C)C)[C@]1(OC(C)=O)CO[C@@H]1C[C@@H]2O` , report its IC50.
A) 75.2

###

# Tested on: Jurkat
# TEST NAME: Antiproliferative activity against human Jurkat cells assessed as growth inhibition after 72 hrs by MTT assay
# Format: functional, cell-based
OBSERVATION TYPE: pIC50
Give bare numbers, as −log10 of the molar value.

Example entries begin here.
# SMILES DATA, VALUE MEASURED
rows = [
    ("COc1cc(-c2nc(N)sc2-c2cc3ccccc3s2)cc(OC)c1OC", 9.22),
    ("CCOc1ccc(-c2sc(N)nc2-c2cc(OC)c(OC)c(OC)c2)cc1Cl", 10.22),
    ("COc1cccc(-c2sc(N)nc2-c2cc(OC)c(OC)c(OC)c2)c1", 7.32),
    ("COc1cc(-c2nc(N)sc2-c2ccc3ccccc3c2)cc(OC)c1OC", 8.48),
    ("COc1cc(-c2nc(N)sc2-c2ccc(C(F)(F)F)cc2)cc(OC)c1OC", 8.07),
    ("COc1cc(-c2nc(N)sc2-c2ccccc2)cc(OC)c1OC", 5.42),
    ("COc1ccc(-c2sc(N)nc2-c2cc(OC)c(OC)c(OC)c2)cc1F", 8.14),
    ("COc1ccc(-c2sc(N)nc2-c2cc(OC)c(OC)c(OC)c2)cc1Cl", 8.54),
]

Please examine the following record next.
Q) Given the molecule `CCOc1ccc(-c2sc(N)nc2-c2cc(OC)c(OC)c(OC)c2)cc1` , what is its reported pIC50?
A) 9.85

###

# Tested on: LoVo
# TEST NAME: Antiproliferative activity against human LoVo cells assessed as growth inhibition after 72 hrs by MTT assay
# Assay type: functional, cell-based
OBSERVATION TYPE: IC50 (nM)
Answers are plain numbers, in nM.

# SMILES DATA, IC50 / nM
records = [
    ("CCOc1ccc(-c2sc(N)nc2-c2cc(OC)c(OC)c(OC)c2)cc1Cl", 2),
]

Batch: IC50 for all items listed.
1. COc1ccc(-c2sc(N)nc2-c2cc(OC)c(OC)c(OC)c2)cc1
2. COc1cccc2c1C(=O)c1c(O)c3c(c(O)c1C2=O)C[C@@](O)(C(=O)CO)C[C@@H]3O[C@H]1C[C@H](N)[C@H](O)[C@H](C)O1
3. CCOc1ccc(-c2sc(N)nc2-c2cc(OC)c(OC)c(OC)c2)cc1

A)
1. 3.1
2. 120
3. 0.7

###

# TEST NAME: Antiproliferative activity against human vinblastine-resistant CEM/VBL100 cells overexpressing P-gp assessed as growth inhibition after 72 hrs by MTT assay
# Format: functional, cell-based
# CONDITION INFO: CEM/VBL100, 72 h
OBSERVATION TYPE: IC50 (nM)
Give bare numbers, in nM.

Example entries begin here.
# SMILES DATA, IC50 (nM)
rows = [
    ("COc1ccc(-c2sc(N)nc2-c2cc(OC)c(OC)c(OC)c2)cc1", 1.2),
    ("CC[C@]1(O)C[C@@H]2CN(CCc3c([nH]c4ccccc34)[C@@](C(=O)OC)(c3cc4c(cc3OC)N(C)[C@H]3[C@@](O)(C(=O)OC)[C@H](OC(C)=O)[C@]5(CC)C=CCN6CC[C@]43[C@@H]65)C2)C1", 230),
    ("CCOc1ccc(-c2sc(N)nc2-c2cc(OC)c(OC)c(OC)c2)cc1", 0.8),
]

Q) Quick one: IC50 for `CCOc1ccc(-c2sc(N)nc2-c2cc(OC)c(OC)c(OC)c2)cc1Cl` ?
A) 0.7
